Reported Kd values follow for various binders
Biological target: T1, recombinant human TIGIT (human, UniProt Q495A1 22-141, limits assumed)
T1 construct: recombinant human TIGIT used in Carterra SPR; also called hTIGIT
T1 sequence (looked up): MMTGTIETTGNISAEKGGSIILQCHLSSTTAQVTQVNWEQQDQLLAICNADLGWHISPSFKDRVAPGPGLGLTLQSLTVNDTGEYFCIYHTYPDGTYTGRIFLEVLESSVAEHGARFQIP
Test: SPR Carterra, average
Give just the numeric value; nM need not be written.

These solved cases illustrate the format of a correct answer.
>>> observed_value("TIGIT-SC164 (Fc fusion, VHH-Fc fusion in assay) VHH: EVQLVESGGGLVQPGGSLRLSCAASGFTFDRSWMGWFRQAPGKEREFVASVLRGGYTWYADSVKGRFTISADNSKNTAYLQMNSLKPEDTAVYYCTTEGSGWRNWGQGTLVTVSS")
55.7
>>> observed_value("TIGIT-SC175 (Fc fusion, VHH-Fc fusion in assay) VHH: EVQLVESGGGLVQPGGSLRLSCAASGNTFSGGFMGWFRQAPGKEREWVASVLRGGYTWYADSVKGRFTISADNSKNTAYLQMNSLKPEDTAVYYCTTDALRFLEWPWWGQGTLVTVSS")
14.4
>>> observed_value("TIGIT-SC119 (Fc fusion, VHH-Fc fusion in assay) VHH: EVQLVESGGGLVQPGGSLRLSCAASGNTFSGGFMGWFRQAPGKEREWVASVLRGGYTWYADSVKGRFTISADNSKNTAYLQMNSLKPEDTAVYYCAKDGGWFDPWGQGTLVTVSS")
19.7

Okay, next one:
Give a short answer stating reported Kd for TIGIT-SC191 (Fc fusion, VHH-Fc fusion in assay) VHH: EVQLVESGGGLVQPGGSLRLSCAASGFVFSSDWMGWFRQAPGKEREWVASVLRGGYTWYADSVKGRFTISADNSKNTAYLQMNSLKPEDTAVYYCARGDSMDVWGQGTLVTVSS .
401
